Molecular target: HIV-1 YU2 gp120 (HIV-1 YU2, UniProt P35961 32-498)
Assay: SPR
assayMetric: k1 (step 1, association) (M⁻¹ s⁻¹)
Note: unit M⁻¹ s⁻¹ is implicit; provide only the numeric part.

Study these solved cases before continuing.
- MVN_G43E (natural protein) MPNFSHTCSSINYDPDSTILSAECQARDGEWLPTELRLSDHIENIDGELQFGDQNFQETCQDCHLEFGDGEQSVWLVCTCQTMDGEWKSTQILLDSQIDNNDSQLEIG: 340000
- MVN_M83R (natural protein) MPNFSHTCSSINYDPDSTILSAECQARDGEWLPTELRLSDHIGNIDGELQFGDQNFQETCQDCHLEFGDGEQSVWLVCTCQTRDGEWKSTQILLDSQIDNNDSQLEIG: 290000
- MVN_G43E/Q81K/M83R/G85Q (natural protein) MPNFSHTCSSINYDPDSTILSAECQARDGEWLPTELRLSDHIENIDGELQFGDQNFQETCQDCHLEFGDGEQSVWLVCTCKTRDQEWKSTQILLDSQIDNNDSQLEIG: 240000
- MVN(Q81K/M83R) (natural protein) MPNFSHTCSSINYDPDSTILSAECQARDGEWLPTELRLSDHIGNIDGELQFGDQNFQETCQDCHLEFGDGEQSVWLVCTCKTRDGEWKSTQILLDSQIDNNDSQLEIG: 310000
- MVN_G43E/G85Q (natural protein) MPNFSHTCSSINYDPDSTILSAECQARDGEWLPTELRLSDHIENIDGELQFGDQNFQETCQDCHLEFGDGEQSVWLVCTCQTMDQEWKSTQILLDSQIDNNDSQLEIG: 90000

Lab book: k1 (step 1, association) of MVN_Q81K/G85Q (natural protein) MPNFSHTCSSINYDPDSTILSAECQARDGEWLPTELRLSDHIGNIDGELQFGDQNFQETCQDCHLEFGDGEQSVWLVCTCKTMDQEWKSTQILLDSQIDNNDSQLEIG noted as 160000

response.value for MVN_G85Q (natural protein) MPNFSHTCSSINYDPDSTILSAECQARDGEWLPTELRLSDHIGNIDGELQFGDQNFQETCQDCHLEFGDGEQSVWLVCTCQTMDQEWKSTQILLDSQIDNNDSQLEIG (field: k1 (step 1, association)) = 290000

The binder listed as MVN_G43E/Q81K (natural protein) MPNFSHTCSSINYDPDSTILSAECQARDGEWLPTELRLSDHIENIDGELQFGDQNFQETCQDCHLEFGDGEQSVWLVCTCKTMDGEWKSTQILLDSQIDNNDSQLEIG shows k1 (step 1, association) equal to 180000

Form: binder = MVN_Q81K (natural protein) MPNFSHTCSSINYDPDSTILSAECQARDGEWLPTELRLSDHIGNIDGELQFGDQNFQETCQDCHLEFGDGEQSVWLVCTCKTMDGEWKSTQILLDSQIDNNDSQLEIG ; k1 (step 1, association) = 1.73e+06

Values were extracted from paper PMC5944358.
